Test system: Escherichia coli TOP10;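 note: peptides expressed intracellularly from a pBAD plasmid library in pooled LB shake-flask culture, induced with 0.3% L-arabinose, DNA abundance read by NGS, three biological replicates, DESeq2 with apeglm shrinkage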
Assay explanation: shrunken log2 fold change of peptide-encoding DNA abundance (4.5 h post-induction vs induction); higher = less antimicrobial activity (less host growth inhibition)
Cond: time post-induction: 4.5 h; library: site-saturation at positions 5, 18, 19, 20
Rule: shrunken log2 fold change under -0.1 gives 0.0, otherwise 1.0.

For this sequence, is measured shrunken log2 fold change -0.1 or higher? RRIRIRPPRLPRPRPRPTYSPRP 0.0

Reported shrunken log2 fold change at or above -0.1? RRIRWRPPRLPRPRPRPCYQPRP 1.0

Check this sequence for shrunken log2 fold change at or above -0.1: RRIRGRPPRLPRPRPRPWIIPRP 0.0

Is shrunken log2 fold change at least -0.1? Consider RRIRWRPPRLPRPRPRPMNKPRP 0.0

Confirm if shrunken log2 fold change reported for the sequence RRIRKRPPRLPRPRPRPSATPRP is -0.1 or above. 1.0

// provenance: the supplement of paper PMC9112550
